# Test system: Abeta 1-42
# Experiment Summary: Cellular αLisa assay in SKNBE2 cells, Abeta 1-42
# Assay type: cell-based, human
# Condition Summary: Homo sapiens, SKNBE2, 18 h, incubated for 18 hours, read-out: Cellular αLisa assay in SKNBE2 cells Abeta 42 pIC50 (converted)
Measured Parameter: IC50

- COc1cnc(C(=O)Nc2cccc(C3(C)COC(F)(C(F)(F)F)C(N)=N3)c2)cn1 (single isomer, unassigned): > 10000 nM
- COc1cnc(C(=O)Nc2ccc(F)c([C@]3(C4CC4)COCC(N)=N3)c2)cn1: 24 nM
- CC1(c2cccc(NC(=O)c3ccc(Cl)cn3)c2)COC(F)(C(F)(F)F)C(N)=N1 (racemic) [Compound 9]: > 10000 nM
- COc1cncc(-c2cccc(C3(C)N=C(N)COC3F)c2)c1 (stereo not shown): 347 nM

----------
# Experiment Summary: Single dose pharmacology in the Beagle dog, pharmacokinetic (PK) follow up
# Assay type: in vivo
# Condition Summary: both sexes, CSF, single dose 20 mg/kg, at 24 h, read-out: CSF levels
Measured Parameter: concentration at 24 h (ng/mL)

• C[C@]1(c2cccc(NC(=O)c3ccc(Cl)cn3)c2)N=C(N)CO[C@@H]1F (single isomer, unassigned) [Compound 86] = 45

----------
# Experiment Summary: Single dose pharmacology in the Beagle dog, pharmacokinetic (PK) follow up
# Type: in vivo
# Condition Summary: both sexes, plasma, single dose 20 mg/kg, up to at least 24 h post dosing, read-out: plasma levels
Measured Parameter: concentration at 24 h (ng/mL)

- C[C@]1(c2cccc(NC(=O)c3ccc(Cl)cn3)c2)N=C(N)CO[C@@H]1F (single isomer, unassigned): 1440

----------
# System: Abeta 1-42
# Experiment Summary: Cellular αLisa assay in SKNBE2 cells, Abeta 1-42
# Assay type: cell-based, human
# Condition Summary: Homo sapiens, SKNBE2, 18 h, incubated for 18 hours, read-out: Cellular αLisa assay in SKNBE2 cells Abeta 42 pIC50 (converted)
This listing pairs molecules with measured IC50.
Measured Parameter: IC50 (nM)

- Cc1cc(Cl)cnc1C(=O)Nc1cccc([C@@]2(C3CC3)N=C(N)CO[C@@H]2F)c1: 19.1
- C[C@]1(c2cc(-c3cncnc3)c(F)cc2F)COC2(CC2)C(N)=N1: 8710
- CC#Cc1cncc(-c2ccc(F)c([C@@]3(C4CC4)N=C(N)CO[C@H]3F)c2)c1: 1860
- COc1cncc(-c2cccc(C3(C)COC4(CC4)C(N)=N3)c2)c1 (racemic): 389

----------
# Target Desc: recombinant BACE1 protein (Homo sapiens)
# Experiment Summary: Biochemical FRET based assay
# Condition Summary: recombinant BACE1 1 μg/ml, 120 minutes at room temperature, pH 5.0
This listing pairs compounds with measured Biochemical FRET based assay pIC50.
Measured Parameter: Biochemical FRET based assay pIC50

• COc1cnc(C(=O)Nc2cccc(C3(C4CC4)N=C(N)COC3C(F)(F)F)c2)cn1 (stereo not shown) = 6.67
• CC1(c2cc(-c3cccc(C#N)c3)c(F)cc2F)COCC(N)=N1 (stereo not shown) = 4.87
• CC1(c2cc(NC(=O)c3ccc(C(F)(F)F)nn3)ccc2F)COCC(N)=N1 (stereo not shown) = 5.67

----------
# Target Desc: recombinant BACE1 protein (Homo sapiens, UniProt P56817)
# Sequence (P56817 46-501): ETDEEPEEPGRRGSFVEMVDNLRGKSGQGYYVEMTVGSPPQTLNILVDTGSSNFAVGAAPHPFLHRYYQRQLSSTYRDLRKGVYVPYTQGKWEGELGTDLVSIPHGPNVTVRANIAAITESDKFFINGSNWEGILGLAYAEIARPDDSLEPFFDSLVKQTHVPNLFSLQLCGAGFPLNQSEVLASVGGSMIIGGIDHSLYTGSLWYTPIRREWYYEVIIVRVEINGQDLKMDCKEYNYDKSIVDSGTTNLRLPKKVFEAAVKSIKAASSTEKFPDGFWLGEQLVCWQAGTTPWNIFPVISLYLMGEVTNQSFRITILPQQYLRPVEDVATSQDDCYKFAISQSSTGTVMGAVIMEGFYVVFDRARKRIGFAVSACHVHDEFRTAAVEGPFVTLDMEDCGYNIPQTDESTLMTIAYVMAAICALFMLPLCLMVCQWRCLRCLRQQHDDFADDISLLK
# Experiment Summary: Biochemical FRET based assay
# Condition Summary: recombinant BACE1 1 μg/ml, 120 minutes at room temperature, pH 5.0
# Description: Biochemical FRET Based Assay This assay is a Fluorescence Resonance Energy Transfer Assay (FRET) based assay. […] Upon cleavage by BACE1, the fluorophore Mca is separated from the quenching group Dnp, restoring the full fluorescence yield of the donor. The increase in fluorescence is linearly related to the rate of proteolysis. […]
Response field label takes fulfilled when Biochemical FRET based assay pIC50 is strictly below 6 and not fulfilled in all other cases.

* CC1(c2cccc(NC(=O)c3ccc(Cl)cn3)c2)COC(F)(C(F)(F)F)C(N)=N1 (single isomer, unassigned) [Compound 154] | fulfilled
* CC1(c2cc(-c3cc(Cl)cc(Cl)c3)ccn2)COCC(N)=N1 (racemic) | fulfilled
* COc1cncc(-c2cccc(C3(C)N=C(N)COC3F)c2)c1 (stereo not drawn) | fulfilled
* CC1(c2cc(NC(=O)c3cnc(C(F)(F)F)cn3)ccc2F)COCC(N)=N1 (stereo not drawn) [Compound 147] | not fulfilled
* NC1=NC(c2cc(-c3cncnc3)ccc2F)(C2CC2)C(F)OC1 (stereo not drawn) | fulfilled
* C[C@@]1(c2cc(-c3cc(Cl)cc(Cl)c3)c(F)cc2F)COCC(N)=N1 | fulfilled
* Cc1cnc(C(=O)Nc2cccc(C3(C)COCC(N)=N3)c2)cn1 (racemic) | fulfilled
* C[C@@]1(c2cc(NC(=O)c3ccc(C(F)(F)F)cn3)ccc2F)COCC(N)=N1 | not fulfilled
* CC1(c2cc(NC(=O)c3cnc(C(F)(F)F)cn3)ccc2F)COCC(N)=N1 (stereo not drawn) [Compound 22] | not fulfilled
* COc1cncc(-c2cccc([C@]3(C)CO[C@@H](C)C(N)=N3)c2)c1 (racemic) | fulfilled
* CC1(c2cccc(NC(=O)c3ccc(C#N)cc3)c2)COCC(N)=N1.Cl (racemic) | fulfilled
* N#Cc1ccc(C(=O)Nc2cccc(C3(C4CC4)N=C(N)COC3C(F)(F)F)c2)nc1 (stereo not drawn) | not fulfilled
* C[C@@]1(c2cccc(NC(=O)c3ccc(Cl)cn3)c2)N=C(N)CO[C@H]1F (racemic) | not fulfilled
* CC1(c2cc(NC(=O)c3ccc(Cl)cc3F)ccc2F)COCC(N)=N1.Cl (stereo not drawn) | not fulfilled
* Cc1cncc(-c2cccc(C3(C)COCC(N)=N3)c2)c1 (racemic) | fulfilled
* C[C@H]1OC[C@](C)(c2cccc(NC(=O)c3ccc(Cl)cn3)c2)N=C1N (racemic) | not fulfilled
* C[C@@]1(c2cc(-c3cc(F)cc(F)c3)c(F)cc2F)COCC(N)=N1 | fulfilled
* C[C@@]1(c2cc(NC(=O)c3ccc(Cl)cc3F)ccc2F)COCC(N)=N1.Cl | not fulfilled
* CC1(c2cc(NC(=O)c3ncc(Cl)cn3)ccc2F)COCC(N)=N1 (stereo not drawn) | not fulfilled
* CC1(c2cccc(NC(=O)c3ccc(C#N)cn3)c2)COCC(N)=N1 (racemic) [Compound 64] | not fulfilled
* CC1(c2cccc(NC(=O)c3ccc(Cl)cn3)c2)COC(F)(C(F)(F)F)C(N)=N1 (single isomer, unassigned) [Compound 157] | fulfilled
* COc1cccc(-c2cc([C@]3(C)COCC(N)=N3)c(F)cc2F)n1.Cl | fulfilled
* CC1(c2cccc(NC(=O)c3ccc(Cl)cn3)c2)N=C(N)COC1F (single isomer, unassigned) [Compound 90] | not fulfilled
* C[C@@]1(c2cc(NC(=O)c3ccc(C#N)cn3)ccc2F)COCC(N)=N1 | not fulfilled
* CC1(c2cccc(NC(=O)c3cnc(C(F)(F)F)cn3)c2)COCC(N)=N1 (stereo not drawn) | not fulfilled
* CC1(c2cc(-c3cccc(C(F)(F)F)c3)c(F)cc2F)COCC(N)=N1 (stereo not drawn) | fulfilled
* CC1(c2cc(-c3cccc(OC(F)(F)F)c3)c(F)cc2F)COCC(N)=N1.Cl (stereo not drawn) | fulfilled
* CC1(c2cccc(NC(=O)c3ccc(C(F)(F)F)cn3)c2)COCC(N)=N1 (racemic) | not fulfilled
* CC1(c2cc(-c3cncnc3)ccc2F)COCC(N)=N1 (racemic) [Compound 58] | fulfilled
* CC1(c2cccc(NC(=O)c3ccc(Cl)cn3)c2)COC(F)(C(F)(F)F)C(N)=N1 (single isomer, unassigned) [Compound 71] | not fulfilled

----------
# Tested on: Abeta 1-42
# Experiment Summary: Cellular αLisa assay in SKNBE2 cells, Abeta 1-42
# Format: cell-based, human
# Condition Summary: Homo sapiens, SKNBE2, 18 h, incubated for 18 hours, read-out: Cellular αLisa assay in SKNBE2 cells Abeta 42 pIC50 (converted)
This listing pairs molecules with measured IC50.
Measured Parameter: IC50 (nM)

- NC1=N[C@@](c2cccc(NC(=O)c3cnc(OCC(F)(F)F)cn3)c2)(C2CC2)[C@H](F)OC1 [Compound 274]: 120
- NC1=N[C@@](c2cc(NC(=O)c3cnc(OCC(F)(F)F)cn3)ccc2F)(C2CC2)[C@@H](F)OC1 [Compound 264]: 347
- NC1=N[C@@](c2cc(NC(=O)c3ccc(Cl)cn3)ccc2F)(C2CC2)[C@H](C(F)(F)F)OC1 [Compound 233]: 12
- CCC1(c2cc(-c3cncc(C#N)c3)ccc2F)N=C(N)COC1C(F)(F)F (centres unmarked) [Compound 310]: 776
- N#Cc1ccc(C(=O)Nc2cccc([C@@]3(C4CC4)N=C(N)CO[C@@]3(F)C(F)(F)F)c2)nc1 [Compound 199]: 16.6
- NC1=N[C@@](c2cccc(-c3cncnc3)c2)(C2CC2)[C@@H](F)OC1 [Compound 257]: 1020
- CCC1(c2cc(NC(=O)c3cnc(OC)cn3)ccc2F)N=C(N)COC1C(F)(F)F (centres unmarked) [Compound 285]: 14.8
- N#Cc1ccc(C(=O)Nc2cccc([C@@]3(C4CC4)N=C(N)CO[C@H]3F)c2)nc1 [Compound 280]: 58.9
